Entry source: ChEMBL document CHEMBL3751735

test system: Hepatitis C virus; test: Antiviral activity against HCV genotype 1b Con1 bicistronic replicon infected in human Huh7 cells assessed as replicon RNA expression measured 3 days post dose by real time RT-PCR analysis; assay type: functional, organism-based, Hepacivirus hominis; details: isolate Con1, Huh-7, 72 h
Overview of reported pEC50 across a group of compounds:
Formally, pEC50 is defined as -log10 of the concentration c, with c in mol/L.

For orientation, consider the following solved cases.
| Item smiles | Test system | Measured result |
| --- | --- | --- |
| CC(C)(C)S(=O)(=O)Nc1ccc(-c2c(C(N)=O)c3c(F)cc(C(F)F)cc3n2C2CCCC2)cc1 | Hepatitis C virus | 8.40 |
| Cc1cc2c(cc1F)c(C(N)=O)c(-c1ccc(NS(=O)(=O)C(C)(C)C)cc1)n2C1CCC1 | Hepatitis C virus | 7.35 |

Query: // pEC50 lookup, key: Cc1cc(NS(=O)(=O)C(C)(C)C)ccc1-c1c(C(N)=O)c2cc(F)c(OC(F)F)cc2n1C1CCCC1
Response: 7.85

Query: And Cc1cc2c(cc1F)c(C(N)=O)c(-c1ccc(NS(=O)(=O)C(C)C)cc1)n2C1CCCC1 ?
Response: 7.25

Query: And CC(C)(C)S(=O)(=O)Nc1ccc(-c2c(C(N)=O)c3cc(F)c(OC(F)F)cc3n2-c2ccccc2)cc1F ?
Response: 7.92

Query: And CC(C)(C)S(=O)(=O)Nc1ccc(-c2c(C(N)=O)c3cc(F)c(OC(F)F)cc3n2C2CCCC2)cc1 ?
Response: 8.30

Query: And Cc1cc2c(cc1F)c(C(N)=O)c(-c1ccc(NS(=O)(=O)C(C)(C)C)cc1)n2-c1ccncc1 ?
Response: 7.17

Query: And CCc1cc2c(cc1F)c(C(N)=O)c(-c1ccc(NS(=O)(=O)C(C)(C)C)cc1)n2C1CCCCC1 ?
Response: 8.40

Query: And Cc1cc2c(cc1F)c(C(N)=O)c(-c1ccc(NS(=O)(=O)C(C)(C)C)cc1)n2-c1ccccc1 ?
Response: 7.85

Query: And Cc1cc2c(cc1F)c(C(N)=O)c(-c1ccc(NS(=O)(=O)C(C)(C)C)cc1)n2-c1ccc(Cl)cc1 ?
Response: 7.37

Query: And CCCc1cc2c(cc1F)c(C(N)=O)c(-c1ccc(NS(=O)(=O)C(C)(C)C)cc1)n2C1CCCC1 ?
Response: 5.74

Query: And CC(C)(C)S(=O)(=O)Nc1ccc(-c2c(C(N)=O)c3cc(F)c(OC(F)F)cc3n2-c2ccccc2)cc1 ?
Response: 8.70

Query: And CC(C)(C)S(=O)(=O)Nc1ccc(-c2c(C(N)=O)c3cc(F)c(C4CC4)cc3n2C2CCCC2)cc1 ?
Response: 7.89

Query: And CC(C)(C)S(=O)(=O)Nc1ccc(-c2c(C(N)=O)c3cc(F)c(OC(F)F)cc3n2C2CCCCC2)cn1 ?
Response: 8.22

Query: And CC(C)(C)S(=O)(=O)Nc1ccc(-c2c(C(N)=O)c3cc(F)c(OC(F)F)cc3n2C2CCCC2)c(Cl)c1 ?
Response: 8.70

Query: And Cc1cc2c(cc1F)c(C(N)=O)c(-c1ccc(NS(=O)(=O)C(C)(C)C)cc1)n2-c1cccnc1 ?
Response: 6.74

Query: And CC(C)(C)S(=O)(=O)Nc1ccc(-c2c(C(N)=O)c3cc(F)c(OC(F)F)cc3n2C2CCCCC2)cc1 ?
Response: 8.70
